Data credit: ChEMBL document CHEMBL5113508

- target.system: B-cell receptor CD22 (Homo sapiens)
- protocol.description: Inhibition of to hFc tagged CD22 (unknown origin) assessed as relative inhibitory potency incubated for 4 hrs by ELISA relative to 1,4-bis-(2-Aza-1-oxo-8-(sodium(5-acetamido-3,5,9-trideoxy-9-(4-phenylbenzamido)-D-glycero-alpha-D-galacto-non-2-ulopyranosyloxyonate))-5-thia-octyl)benzene
Sorting guide: entries reporting fold change (FC) beneath 0.8 go in the 1 (yes) pile, the rest go in the 0 (no) pile.

Example results:
- compound: "CC(=O)N[C@H]1[C@H]([C@H](O)[C@H](O)CNC(=O)c2ccc(-c3ccccc3)cc2)O[C@@](OCCC[S+]([O-])CCNC(=O)c2ccc(C(=O)NCC[S+]([O-])CCCO[C@]3(C(=O)O)C[C@H](O)[C@@H](NC(C)=O)[C@H]([C@H](O)[C@H](O)CNC(=O)c4ccc(-c5ccccc5)cc4)O3)cc2)(C(=O)O)C[C@@H]1O (stereo partly drawn)"
  label: "1 (yes)"
- compound: "CC(=O)N[C@H]1[C@H]([C@H](O)[C@H](O)CNC(=O)c2ccc(-c3ccccc3)cc2)O[C@@](OCCCSCCNC(=O)CCCCC(=O)NCCSCCCO[C@]2(C(=O)O)C[C@H](O)[C@@H](NC(C)=O)[C@H]([C@H](O)[C@H](O)CNC(=O)c3ccc(-c4ccccc4)cc3)O2)(C(=O)O)C[C@@H]1O"
  label: "1 (yes)"
- compound: "CC(=O)N[C@H]1[C@H]([C@H](O)[C@H](O)CNC(=O)c2ccc(-c3ccccc3)cc2)O[C@@](OCc2cn(CCNC(=O)c3ccc(C(=O)NCCn4cc(CO[C@]5(C(=O)O)C[C@H](O)[C@@H](NC(C)=O)[C@H]([C@H](O)[C@H](O)CNC(=O)c6ccc(-c7ccccc7)cc6)O5)nn4)cc3)nn2)(C(=O)O)C[C@@H]1O"
  label: "1 (yes)"
- compound: "CC(=O)N[C@H]1[C@H]([C@H](O)[C@H](O)CNC(=O)c2ccc(-c3ccccc3)cc2)O[C@@](OCCCSCCNC(=O)c2ccc(C(=O)NCCSCCCO[C@]3(C(=O)O)C[C@H](O)[C@@H](NC(C)=O)[C@H]([C@H](O)[C@H](O)CNC(=O)c4ccc(-c5cccs5)cc4)O3)cc2)(C(=O)O)C[C@@H]1O"
  label: "0 (no)"
- compound: "CC(=O)N[C@H]1[C@H]([C@H](O)[C@H](O)CNC(=O)c2ccc(C3CCCCC3)cc2)O[C@@](OCCCSCCNC(=O)c2ccc(C(=O)NCCSCCCO[C@]3(C(=O)O)C[C@H](O)[C@@H](NC(C)=O)[C@H]([C@H](O)[C@H](O)CNC(=O)c4ccc(C5CCCCC5)cc4)O3)cc2)(C(=O)O)C[C@@H]1O"
  label: "1 (yes)"
- compound: "CC(=O)N[C@H]1[C@H]([C@H](O)[C@H](O)CNC(=O)c2ccc(-c3ccccc3Cl)cc2)O[C@@](OCCCSCCNC(=O)c2ccc(C(=O)NCCSCCCO[C@]3(C(=O)O)C[C@H](O)[C@@H](NC(C)=O)[C@H]([C@H](O)[C@H](O)CNC(=O)c4ccc(-c5ccccc5Cl)cc4)O3)cc2)(C(=O)O)C[C@@H]1O"
  label: "0 (no)"

Field: next compound
Query: Record CC(=O)N[C@H]1[C@H]([C@H](O)[C@H](O)CNC(=O)c2ccc(-c3ccccc3)cc2)O[C@@](OCCCSCCNC(=O)c2ccc(C(=O)NCCSCCCO[C@]3(C(=O)O)C[C@H](O)[C@@H](NC(C)=O)[C@H]([C@H](O)[C@H](O)CNC(=O)c4ccc(-c5ccccc5)cc4)O3)c(Br)c2)(C(=O)O)C[C@@H]1O : is its fold change (FC) strictly below 0.8?
Response: 1 (yes)

---

- target.system: B-cell receptor CD22 (Homo sapiens) (UniProt P20273)
- Sequence (P20273 whole entry): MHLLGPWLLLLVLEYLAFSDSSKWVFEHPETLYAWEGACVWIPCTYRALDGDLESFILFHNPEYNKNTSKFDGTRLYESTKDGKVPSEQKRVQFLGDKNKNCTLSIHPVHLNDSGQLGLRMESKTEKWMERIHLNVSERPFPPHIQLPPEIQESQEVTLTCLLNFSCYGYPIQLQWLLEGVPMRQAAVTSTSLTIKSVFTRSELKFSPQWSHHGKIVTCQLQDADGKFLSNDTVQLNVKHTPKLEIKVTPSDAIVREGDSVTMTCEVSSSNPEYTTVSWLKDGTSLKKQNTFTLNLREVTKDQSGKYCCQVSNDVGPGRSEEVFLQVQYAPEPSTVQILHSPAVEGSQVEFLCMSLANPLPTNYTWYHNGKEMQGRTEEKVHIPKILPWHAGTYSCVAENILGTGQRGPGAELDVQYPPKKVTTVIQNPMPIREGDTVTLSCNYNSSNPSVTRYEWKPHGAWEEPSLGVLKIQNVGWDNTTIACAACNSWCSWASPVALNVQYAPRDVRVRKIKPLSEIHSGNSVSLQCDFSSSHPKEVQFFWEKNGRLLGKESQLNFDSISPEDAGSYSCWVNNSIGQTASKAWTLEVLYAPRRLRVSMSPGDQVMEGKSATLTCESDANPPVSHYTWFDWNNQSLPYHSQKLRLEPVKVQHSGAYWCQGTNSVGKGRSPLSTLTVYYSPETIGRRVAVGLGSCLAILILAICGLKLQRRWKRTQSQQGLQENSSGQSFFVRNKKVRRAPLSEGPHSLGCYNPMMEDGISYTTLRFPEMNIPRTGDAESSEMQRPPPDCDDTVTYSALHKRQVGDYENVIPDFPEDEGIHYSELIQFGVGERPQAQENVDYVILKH
- protocol.description: Inhibition of CD22 in human Daudi cells assessed as relative inhibitory potency in presence of biotinylated dimeric 2-(78-biotinoylamino-1,4,7,10,13,16-hexaoxa-octadecyl)-1,4-bis(2-aza-l-oxo-8-(sodium(5-acetamido-3,5,9-trideoxy-9-(4-phenylbenzamido)-D-glycero-a-D-galacto-non-2-ulopyranosyloxyonate))-5-thia-octyl) benzene preincubated for 15 mins followed by probe addition incubated for 20 mins by flow cytometric analysis relative to 1,4-bis-(2-Aza-1-oxo-8-(sodium(5-acetamido-3,5,9-trideoxy-9-(4-phenylbenzamido)-D-glycero-alpha-D-galacto-non-2-ulopyranosyloxyonate))-5-thia-octyl)benzene
- Assay type: cell-based
- experimental.conditions: time 35.0 min
quantity.name: fold change (FC)
Please give the numeric answer without any surrounding text.

Worked cases, answers included:
- smiles.data: "CC(=O)N[C@H]1[C@H]([C@H](O)[C@H](O)CNC(=O)c2ccc(-c3cccs3)s2)O[C@@](OCCCSCCNC(=O)c2ccc(C(=O)NCCSCCCO[C@]3(C(=O)O)C[C@H](O)[C@@H](NC(C)=O)[C@H]([C@H](O)[C@H](O)CNC(=O)c4ccc(-c5cccs5)s4)O3)cc2)(C(=O)O)C[C@@H]1O"
  fold change (FC): 0.07
- smiles.data: "CC(=O)N[C@H]1[C@H]([C@H](O)[C@H](O)CNC(=O)c2ccc(-c3ccccc3)cc2)O[C@@](OCCCSCCNC(=O)c2ccc(C(=O)NCCSCCCO[C@]3(C(=O)O)C[C@H](O)[C@@H](NC(C)=O)[C@H]([C@H](O)[C@H](O)CNC(=O)c4ccc(-c5ccccc5)cc4)O3)c(OCCOCCOCCOCCOCCOCCN)c2)(C(=O)O)C[C@@H]1O"
  fold change (FC): 0.14
- smiles.data: "CC(=O)N[C@H]1[C@H]([C@H](O)[C@H](O)CO)O[C@@](OCCCSCCNC(=O)c2ccc(C(=O)NCCSCCCO[C@]3(C(=O)O)C[C@H](O)[C@@H](NC(C)=O)[C@H]([C@H](O)[C@H](O)CO)O3)cc2)(C(=O)O)C[C@@H]1O"
  fold change (FC): 0.00034

Query: Can you look up the measured fold change (FC) of CC(=O)N[C@H]1[C@H]([C@H](O)[C@H](O)CNC(=O)c2ccc(C3CCCCC3)cc2)O[C@@](OCCCSCCNC(=O)c2ccc(C(=O)NCCSCCCO[C@]3(C(=O)O)C[C@H](O)[C@@H](NC(C)=O)[C@H]([C@H](O)[C@H](O)CNC(=O)c4ccc(C5CCCCC5)cc4)O3)cc2)(C(=O)O)C[C@@H]1O for me?
Response: 0.008

---

This section presents molecules with their documented fold change (FC) values.
- target.system: UniProtKB P20273
- protocol.description: Inhibition of to hFc tagged CD22 (unknown origin) assessed as relative inhibitory potency incubated for 4 hrs by ELISA relative to 1,4-bis-(2-Aza-1-oxo-8-(sodium(5-acetamido-3,5,9-trideoxy-9-(4-phenylbenzamido)-D-glycero-alpha-D-galacto-non-2-ulopyranosyloxyonate))-5-thia-octyl)benzene
Please reply with the number alone, leaving off any unit.

- smiles.data: "CC(=O)N[C@H]1[C@H]([C@H](O)[C@H](O)CNC(=O)c2ccc(-c3cccs3)s2)O[C@@](OCCCSCCNC(=O)c2ccc(C(=O)NCCSCCCO[C@]3(C(=O)O)C[C@H](O)[C@@H](NC(C)=O)[C@H]([C@H](O)[C@H](O)CNC(=O)c4ccc(-c5cccs5)s4)O3)cc2)(C(=O)O)C[C@@H]1O"
  fold change (FC): 4.5
- smiles.data: "CC(=O)N[C@H]1[C@H]([C@H](O)[C@H](O)CNC(=O)c2ccc(-c3ccccc3)cc2)O[C@@](OCCCSCCNC(=O)c2ccc(C(=O)NCCSCCCO[C@]3(C(=O)O)C[C@H](NS(=O)(=O)O)[C@@H](NC(C)=O)[C@H]([C@H](O)[C@H](O)CNC(=O)c4ccc(-c5ccccc5)cc4)O3)cc2)(C(=O)O)C[C@@H]1NS(=O)(=O)O"
  fold change (FC): 65
- smiles.data: "CC(=O)N[C@H]1[C@H]([C@H](O)[C@H](O)CNC(=O)c2ccc(-c3ccsc3)cc2)O[C@@](OCCCSCCNC(=O)c2ccc(C(=O)NCCSCCCO[C@]3(C(=O)O)C[C@H](O)[C@@H](NC(C)=O)[C@H]([C@H](O)[C@H](O)CNC(=O)c4ccc(-c5ccsc5)cc4)O3)cc2)(C(=O)O)C[C@@H]1O"
  fold change (FC): 1.6
- smiles.data: "CC(=O)N[C@H]1[C@H]([C@H](O)[C@H](O)CO)O[C@@](OCCCSCCNC(=O)c2ccc(C(=O)NCCSCCCO[C@]3(C(=O)O)C[C@H](O)[C@@H](NC(C)=O)[C@H]([C@H](O)[C@H](O)CO)O3)cc2)(C(=O)O)C[C@@H]1O"
  fold change (FC): 0.01
- smiles.data: "CC(=O)N[C@H]1[C@H]([C@H](O)[C@H](O)CNC(=O)c2ccc(-c3ccccc3)cc2)O[C@](C(=O)O)(n2cc(CCCCNC(=O)c3ccc(C(=O)NCCCCc4cn([C@]5(C(=O)O)C[C@H](O)[C@@H](NC(C)=O)[C@H]([C@H](O)[C@H](O)CNC(=O)c6ccc(-c7ccccc7)cc6)O5)nn4)cc3)nn2)C[C@@H]1O"
  fold change (FC): 0.86

Kindly review the next molecule as well.
Query: Field: fold change (FC) (UniProtKB P20273). Entry: CC(=O)N[C@H]1[C@H]([C@H](O)[C@H](O)CNC(=O)c2ccc(-c3ccccc3)cc2)O[C@@](OCCCSCCC(=O)Nc2ccc(NC(=O)CCSCCCO[C@]3(C(=O)O)C[C@H](O)[C@@H](NC(C)=O)[C@H]([C@H](O)[C@H](O)CNC(=O)c4ccc(-c5ccccc5)cc4)O3)cc2)(C(=O)O)C[C@@H]1O
Response: 0.1
